- protocol.details: Human pregnane X receptor (PXR) small molecule agonists, qHTS cell viability counter screen (AID 1346977); note: nearly all actives have a fitted effect of over 50% in size
- measurement.conditions: PXR-Luc HepG2 viability, CellTiter-Fluor, 24 h; series mostly up to 92.4 µM
Records with an inconclusive call do not appear. Active and inactive are the calls of the source. Calls come from the whole dose curve; as a rule, active = well fitted cell-killing curve with a large enough effect in the repeat runs; inconclusive = weak or mixed curves, or effect the other way; inactive = flat fitted curve, though single readings scatter.
Return exactly one item of true for active, false for inactive

Per the records of this test, what outcome belongs to CC(=O)C1(C)CC2=C(CCCC2(C)C)CC1C (centres undefined) ? false

Per the records of this test, what outcome belongs to Cc1ccc(C(=O)c2cc(O)c(O)c([N+](=O)[O-])c2)cc1 ? true

Per the records of this test, what outcome belongs to CC(C)(C)NC(=O)[C@H]1CC[C@H]2[C@@H]3CC[C@H]4NC(=O)C=C[C@]4(C)[C@H]3CC[C@]12C ? false

Per the records of this test, what outcome belongs to CC(C)OC=O ? false

Per the records of this test, what outcome belongs to O=C=Nc1ccc(Cc2ccc(N=C=O)cc2)cc1 ? false

Per the records of this test, what outcome belongs to Cc1ccc2c(n1)Oc1ccc(C(C)C(=O)OCC(=O)N(C)C)cc1C2 (centres undefined) ? false

Per the records of this test, what outcome belongs to O=C(/C=C/C=C/c1ccc2c(c1)OCO2)N1CCCCC1 ? false

Per the records of this test, what outcome belongs to c1cc(-c2ccncc2)ccn1 ? false

Per the records of this test, what outcome belongs to Clc1nc(Cl)c(Cl)c(Cl)c1Cl ? false

---

- protocol.details: qHTS assay to identify small molecule antagonists of the retinoid-related orphan receptor gamma (ROR-gamma) signaling pathway - cell viability counter screen (AID 1159520); note: nearly all actives have a fitted effect of over 50% in size
- measurement.conditions: Tet-on RORgamma CHO cells viability, ATP luminescence, 16 h; series mostly up to 92.4 µM
Inconclusive results are not listed. The source made the active and inactive calls. Calls come from the whole dose curve; as a rule, active = well fitted cell-killing curve with a large enough effect in the repeat runs; inconclusive = weak or mixed curves, or effect the other way; inactive = no such curve, though single readings can be large or run the other way.
Return exactly one item of 1.0 = active, 0.0 = inactive

Per the records of this test, what outcome belongs to CCCc1c(OCCCCc2nn[nH]n2)ccc(C(C)=O)c1O ? 0.0

Per the records of this test, what outcome belongs to CC(C)OB(OC(C)C)OC(C)C ? 0.0

Per the records of this test, what outcome belongs to C#C[C@]1(O)CC[C@H]2[C@@H]3CCc4cc(OC)ccc4[C@H]3CC[C@@]21C ? 0.0

Per the records of this test, what outcome belongs to O=C(c1ccccc1)c1ccc(O)cc1O ? 0.0

Per the records of this test, what outcome belongs to O=C(O)c1ccccc1Nc1cccc(C(F)(F)F)c1 ? 0.0

---

- protocol.details: qHTS assay for small molecule agonists of the p53 signaling pathway - cell viability (AID 651633);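 note: p53RE-bla HCT reporter cells with a stable beta-lactamase p53 reporter; nearly all actives have a fitted effect of over 30% in size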
- measurement.conditions: p53RE-bla HCT-116 viability, ATP luminescence, 16 h; series mostly up to 83.3 µM
Results filed as inconclusive are left out. The source made the active and inactive calls. Calls follow the shape of the full dose curve.
reported.property: outcome

These recorded examples may help you get a feel for the data.
>  <compound>
O=C(COc1ccc(Cl)cc1)N1CCN(Cc2ccc3c(c2)OCO3)CC1

>  <outcome>
inactive

$$$$
>  <compound>
Cc1cccc(C(=O)O)c1

>  <outcome>
inactive

$$$$
>  <compound>
CC(C)OB(OC(C)C)OC(C)C

>  <outcome>
inactive

$$$$
>  <compound>
CC(=O)CC/C=C(\C)CCC=C(C)C

>  <outcome>
inactive

$$$$
>  <compound>
CC1=CCC(C(C)(C)O)CC1 (configuration not stated)

>  <outcome>
inactive

$$$$
>  <compound>
O=C=Nc1ccc(Cc2ccc(N=C=O)cc2)cc1

>  <outcome>
inactive

$$$$

Short answer for c1ccc2c(c1)Oc1ccccc1S2 : outcome was inactive

---

- protocol.details: qHTS assay to identify small molecule antagonists of the retinoid-related orphan receptor gamma (ROR-gamma) signaling pathway - cell viability counter screen (AID 1159520); note: nearly all actives have a fitted effect of over 50% in size
- measurement.conditions: Tet-on RORgamma CHO cells viability, ATP luminescence, 16 h; series mostly up to 92.4 µM
Records with an inconclusive call do not appear. The source made the active and inactive calls. Calls come from the whole dose curve; as a rule, active = well fitted cell-killing curve with a large enough effect in the repeat runs; inconclusive = weak or mixed curves, or effect the other way; inactive = no such curve, though single readings can be large or run the other way.
Return exactly one item of 1 for active, 0 for inactive

>  <molecule>
CC(C(=O)O)c1cccc(C(=O)c2ccccc2)c1 (stereo unspecified)

>  <label.class>
0

$$$$
>  <molecule>
C=C(C)C(=O)OCCOC(=O)C(=C)C

>  <label.class>
0

$$$$
>  <molecule>
CC(C)=CCCC(C)CCO (stereo unspecified)

>  <label.class>
0

$$$$

Per the records of this test, what outcome belongs to Nc1ccc(Nc2ccccc2)cc1 ? 0

---

- protocol.details: qHTS assay to identify small molecule antagonists of the retinoid-related orphan receptor gamma (ROR-gamma) signaling pathway - cell viability counter screen (AID 1159520); note: nearly all actives have a fitted effect of over 50% in size
- measurement.conditions: Tet-on RORgamma CHO cells viability, ATP luminescence, 16 h; series mostly up to 92.4 µM
Records with an inconclusive call do not appear. The source made the active and inactive calls. The call rests on the fitted dose curve; in most records, active means well fitted cell-killing curve with a large enough effect in the repeat runs; inconclusive means weak or mixed curves, or effect the other way; inactive means no such curve, though single readings can be large or run the other way.
Return exactly one item of yes (active), no (inactive)

>  <molecule>
CC(=O)C1(C)CC2=C(CCCC2(C)C)CC1C (configuration not stated)

>  <label.class>
no

$$$$
>  <molecule>
CC(C)OC(=O)C(C)(C)Oc1ccc(C(=O)c2ccc(Cl)cc2)cc1

>  <label.class>
no

$$$$
>  <molecule>
COC(=O)C1=C(C)NC(C)=C(C(=O)OCCN(C)Cc2ccccc2)C1c1cccc([N+](=O)[O-])c1 (configuration not stated)

>  <label.class>
yes

$$$$
>  <molecule>
CC(C)Oc1ccc2c(=O)c(-c3ccccc3)coc2c1

>  <label.class>
no

$$$$
>  <molecule>
CCCCc1oc2ccccc2c1C(=O)c1cc(I)c(OCCN(CC)CC)c(I)c1

>  <label.class>
yes

$$$$

Per the records of this test, what outcome belongs to O=C(Nc1ccc(Cl)cc1)Nc1ccc(Cl)c(Cl)c1 ? yes

Per the records of this test, what outcome belongs to CC(=O)c1ccccn1 ? no

Per the records of this test, what outcome belongs to Brc1cc(Oc2cc(Br)c(Br)c(Br)c2Br)c(Br)c(Br)c1Br ? no

Per the records of this test, what outcome belongs to Cc1cccc(C(=O)O)c1 ? no

Per the records of this test, what outcome belongs to CCCCCCCCCCCO ? no

Per the records of this test, what outcome belongs to O=c1oc(=O)c2cc3c(=O)oc(=O)c3cc12 ? no

Per the records of this test, what outcome belongs to CC(=O)CC/C=C(\C)CCC=C(C)C ? no

---

- protocol.details: qHTS assay to identify small molecule antagonists of the retinoid-related orphan receptor gamma (ROR-gamma) signaling pathway - cell viability counter screen (AID 1159520); note: nearly all actives have a fitted effect of over 50% in size
- measurement.conditions: Tet-on RORgamma CHO cells viability, ATP luminescence, 16 h; series mostly up to 92.4 µM
Inconclusive results are not listed. Calls of active or inactive are those of the source. The call rests on the fitted dose curve; in most records, active means well fitted cell-killing curve with a large enough effect in the repeat runs; inconclusive means weak or mixed curves, or effect the other way; inactive means no such curve, though single readings can be large or run the other way.
Return exactly one item of active, inactive

>  <cpd.smiles>
O=CCCCC=O

>  <label.class>
active

$$$$
>  <cpd.smiles>
CCOCCOCCO

>  <label.class>
inactive

$$$$
>  <cpd.smiles>
O=C1c2cccc(O)c2C(=O)c2c(O)cccc21

>  <label.class>
inactive

$$$$
>  <cpd.smiles>
Cc1cccc(N(C)C(=S)Oc2ccc3ccccc3c2)c1

>  <label.class>
inactive

$$$$
>  <cpd.smiles>
O=C1OC2(c3cc(Br)c(O)c(Br)c3Oc3c2cc(Br)c(O)c3Br)c2c(Cl)c(Cl)c(Cl)c(Cl)c21

>  <label.class>
inactive

$$$$

Per the records of this test, what outcome belongs to OCCO ? inactive

Per the records of this test, what outcome belongs to CCCCOCCOCCO ? inactive

Per the records of this test, what outcome belongs to CN1C(C(=O)Nc2ccccn2)=C(O)c2ccccc2S1(=O)=O ? inactive

Per the records of this test, what outcome belongs to S=C(NC1CCCCC1)NC1CCCCC1 ? inactive

Per the records of this test, what outcome belongs to CC(=O)O[C@]1(C(C)=O)CC[C@H]2[C@@H]3C=C(Cl)C4=CC(=O)[C@@H]5C[C@@H]5[C@]4(C)[C@H]3CC[C@@]21C ? inactive

---

- protocol.details: qHTS assay to identify small molecule antagonists of the retinoid-related orphan receptor gamma (ROR-gamma) signaling pathway - cell viability counter screen (AID 1159520); note: nearly all actives have a fitted effect of over 50% in size
- measurement.conditions: Tet-on RORgamma CHO cells viability, ATP luminescence, 16 h; series mostly up to 92.4 µM
Results filed as inconclusive are left out. The source made the active and inactive calls. Calls follow the shape of the dose curve; as a rule, active = well fitted cell-killing curve with a large enough effect in the repeat runs; inconclusive = weak or mixed curves, or effect the other way; inactive = no such curve, though single readings can be large or run the other way.
reported.property: outcome

These recorded examples may help you get a feel for the data.
>  <cpd.smiles>
O=S(=O)(O)c1ccc(O)cc1

>  <result>
inactive

$$$$
>  <cpd.smiles>
NNc1ccc(C(=O)O)cc1

>  <result>
inactive

$$$$
>  <cpd.smiles>
NC=O

>  <result>
inactive

$$$$
>  <cpd.smiles>
CC(C)OC=O

>  <result>
inactive

$$$$

Short answer for OC[C@H]1O[C@@H]2O[C@H]3[C@H](O)[C@@H](O)[C@@H](O[C@H]4[C@H](O)[C@@H](O)[C@@H](O[C@H]5[C@H](O)[C@@H](O)[C@@H](O[C@H]6[C@H](O)[C@@H](O)[C@@H](O[C@H]7[C@H](O)[C@@H](O)[C@@H](O[C@H]8[C@H](O)[C@@H](O)[C@@H](O[C@H]1[C@H](O)[C@H]2O)O[C@@H]8CO)O[C@@H]7CO)O[C@@H]6CO)O[C@@H]5CO)O[C@@H]4CO)O[C@@H]3CO : outcome was inactive

Origin of values: PubChem BioAssay (Tox21)
